Quick record of pIC50 values for Porcine pancreatic elastase (PE) (Sus scrofa, UniProt P00772).
Structures can show the parent of a compound that is named as a salt.
Convention used: pIC50 is expressed as -log10 of the molar concentration.

| COMPOUND | RECORDED NUMBER |
| --- | --- |
| O=c1cc(-c2ccccc2)oc2cc(O)c(O)c(O)c12 [Baicalein, 5,6,7-trihydroxy-2-phenylchromen-4-one] | 5.45 |

Q: Determine from records and report pIC50 for CC(C)(C)C(=O)Oc1ccc(S(=O)(=O)Nc2ccccc2C(=O)NCC(=O)O)cc1 [Sivelestat sodium salt hydrate]
A: 4.80

###

Molecular target: Porcine pancreatic elastase (PE) (Sus scrofa, UniProt P00772)
Sequence (P00772 27-266): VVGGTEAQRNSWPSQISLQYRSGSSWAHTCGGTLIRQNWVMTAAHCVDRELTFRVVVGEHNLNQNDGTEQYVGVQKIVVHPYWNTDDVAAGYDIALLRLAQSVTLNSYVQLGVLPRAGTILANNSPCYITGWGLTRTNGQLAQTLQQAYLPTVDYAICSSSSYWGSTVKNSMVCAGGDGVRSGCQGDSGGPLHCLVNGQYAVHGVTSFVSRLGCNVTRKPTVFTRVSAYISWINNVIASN
ASSAY ENDPOINT: pKd
Convention used: pKd is expressed as -log10 of the molar concentration.

Q: Write down measured pKd (Porcine pancreatic elastase (PE) (Sus scrofa, UniProt P00772)) for this compound. O=c1cc(-c2ccccc2)oc2cc(O)c(O)c(O)c12 [Baicalein, 5,6,7-trihydroxy-2-phenylchromen-4-one]
A: 7.58
